The origin of these recorded values is patent US20240209053A1.

Molecular target: human ferroportin (SLC40A1) (Homo sapiens)
Test: FPN activity assay: internalization/degradation of ferroportin-GFP in stably transfected HEK293 cells (decrease in GFP fluorescence)
Settings: compound incubated at least 18 hours
pIC50: −log10 of the molar value.
PARAMETER: pIC50

smiles_code=CCCCCCCCCCCCCCCC(=O)NCCCCCC(=O)NCCCC[C@@H]1NC(=O)[C@@H]2CCCN2C(=O)[C@H](C(c2ccccc2)c2ccccc2)NC(=O)[C@H](Cc2c[nH]cn2)NC(=O)[C@H]([C@@H](C)O)NC(=O)[C@@H](NC(=O)CC(C)C)CCC=CCC[C@@H](C(=O)N[C@H](CC(=O)N[C@H](CCCCN)C(N)=O)Cc2ccccc2)NC(=O)[C@H]([C@@H](C)CC)NC1=O value_reported="7.00 to 8.00"
smiles_code=CCCCCCCCCCCCCCCC(=O)NCCCCCC(=O)NCCCC[C@H](NC(=O)C[C@H](Cc1ccccc1)NC(=O)[C@@H]1CCC=CC[C@H](NC(=O)CC(C)C)C(=O)N[C@@H]([C@@H](C)O)C(=O)N[C@@H](Cc2c[nH]cn2)C(=O)N[C@@H](C(c2ccccc2)c2ccccc2)C(=O)N2CCC[C@H]2C(=O)N[C@@H](C)C(=O)N[C@@H]([C@@H](C)CC)C(=O)N1)C(=O)N[C@H](CCCCN)C(N)=O value_reported="7.00 to 8.00"
smiles_code=CCCCCCCCCCCCCCCC(=O)NCCCCCC(=O)NCCCC[C@H](NC(=O)C[C@H](Cc1ccccc1)NC(=O)[C@@H]1CCCC=CCCC[C@H](NC(=O)CC(C)C)C(=O)N[C@@H]([C@@H](C)O)C(=O)N[C@@H](Cc2c[nH]cn2)C(=O)N[C@@H](C(c2ccccc2)c2ccccc2)C(=O)N2CCC[C@H]2C(=O)N[C@@H](C)C(=O)N[C@@H]([C@@H](C)CC)C(=O)N1)C(=O)N[C@H](CCCCN)C(N)=O value_reported="8.00 to 9.00"
smiles_code=CCCCCCCCCCCCCCCC(=O)NCCCCCC(=O)NCCCC[C@H](NC(=O)C[C@H](Cc1ccccc1)NC(=O)[C@H]1CCCC=CCC[C@@H](NC(=O)CC(C)C)C(=O)N[C@@H]([C@@H](C)O)C(=O)N[C@@H](Cc2c[nH]cn2)C(=O)N[C@@H](C(c2ccccc2)c2ccccc2)C(=O)N2CCC[C@H]2C(=O)N[C@@H](C)C(=O)N[C@@H]([C@@H](C)CC)C(=O)N1)C(=O)N[C@H](CCCCN)C(N)=O value_reported="6.30 to 7.00"
smiles_code=CCCCCCCCCCCCCCCC(=O)NCCCCCC(=O)NCCCC[C@H](NC(=O)C[C@H](Cc1ccccc1)NC(=O)[C@@H](CCCCN)NC(=O)[C@@H](NC(=O)[C@@H]1CCC=CCC[C@H](NC(=O)[C@@H](NC(=O)[C@H](Cc2c[nH]cn2)NC(=O)[C@@H](NC(=O)[C@H](CCC(=O)O)NC(=O)CC(C)C)[C@@H](C)O)C(c2ccccc2)c2ccccc2)C(=O)N1)[C@@H](C)CC)C(=O)N[C@H](CCCCN)C(N)=O value_reported="< 6.30"

###

Target: human ferroportin (SLC40A1) (Homo sapiens, UniProt Q9NP59)
Sequence (Q9NP59 1-571): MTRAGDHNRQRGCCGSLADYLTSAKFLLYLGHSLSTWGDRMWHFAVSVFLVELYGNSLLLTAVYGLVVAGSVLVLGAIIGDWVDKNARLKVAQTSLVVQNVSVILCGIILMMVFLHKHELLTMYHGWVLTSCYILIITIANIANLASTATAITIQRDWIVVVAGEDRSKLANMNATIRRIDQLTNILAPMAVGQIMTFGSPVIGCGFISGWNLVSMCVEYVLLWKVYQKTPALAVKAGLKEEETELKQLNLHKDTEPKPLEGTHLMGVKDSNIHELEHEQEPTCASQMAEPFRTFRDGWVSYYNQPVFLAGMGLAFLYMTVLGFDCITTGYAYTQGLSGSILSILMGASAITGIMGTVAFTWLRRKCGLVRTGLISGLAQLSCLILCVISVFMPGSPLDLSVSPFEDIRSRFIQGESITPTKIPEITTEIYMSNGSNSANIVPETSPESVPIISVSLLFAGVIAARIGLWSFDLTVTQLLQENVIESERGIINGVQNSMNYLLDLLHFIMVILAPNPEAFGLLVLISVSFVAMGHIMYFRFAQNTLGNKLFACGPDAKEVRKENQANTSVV
Assay: FPN activity assay: internalization/degradation of ferroportin-GFP in stably transfected HEK293 cells (decrease in GFP fluorescence)
Settings: compound incubated at least 18 hours
pIC50: −log10 of the molar value. Numbered stars: 1 amine (or outer) side, 2 acyl side, 3 side chain; on linkers, the order of the positions; unused ones are H or OH. Bridge positions count the residues as written; N and C are the ends. Square brackets hold non-standard residues; d marks the D form. Side chains are listed from the residue outwards. Peptide text beside a SMILES is read from it. * marks the point of attachment. Nle(6-ylidene) = O=C([C@H](CCCC=[*:3])N[*:1])[*:2]; Dip = N[C@H](C(=O)O)C(c1ccccc1)c1ccccc1; Palmitoyl = CCCCCCCCCCCCCCCC(=O)*; β3hF = N[C@H](CC(=O)O)Cc1ccccc1; Isovaleryl = CC(C)CC(=O)*; Ahx = NCCCCCC(=O)O
PARAMETER: pIC50

compound="CCCCCCCCCCCCCCCC(=O)NCCCCCC(=O)NCCCC[C@@H]1NC(=O)[C@@H]2CCCN2C(=O)[C@H](C(c2ccccc2)c2ccccc2)NC(=O)[C@H](Cc2c[nH]cn2)NC(=O)[C@H]([C@@H](C)O)NC(=O)[C@@H](NC(=O)CC(C)C)CCCC=CCCC[C@@H](C(=O)N[C@H](CC(=O)N[C@H](CCCCN)C(N)=O)Cc2ccccc2)NC1=O [Compd 35] (Isovaleryl-[Nle(6-ylidene)]TH[Dip]PK([Ahx-Palmitoyl])[Nle(6-ylidene)][β3hF][dK]-NH2; staple 1-7)" parameter=pIC50 value_reported="< 6.30"

###

Target: UniProt:Q9NP59
Assay: T47D cell-based ferroportin internalization assay in presence of 0.5% mouse serum albumin (MSA)
Settings: T47D cells
Numbered stars: 1 amine (or outer) side, 2 acyl side, 3 side chain; on linkers, the order of the positions; unused ones are H or OH. Bridge positions count the residues as written; N and C are the ends. Square brackets hold non-standard residues; d marks the D form. Side chains are listed from the residue outwards. Peptide text beside a SMILES is read from it. * marks the point of attachment. Dip = N[C@H](C(=O)O)C(c1ccccc1)c1ccccc1; Hag = O=C([C@H](CCC=[*:3])N[*:1])[*:2]; Palmitoyl = CCCCCCCCCCCCCCCC(=O)*; β3hF = N[C@H](CC(=O)O)Cc1ccccc1; Isovaleryl = CC(C)CC(=O)*; Ahx = NCCCCCC(=O)O
Catalogue of IC50 values
PARAMETER: IC50

compound="CCCCCCCCCCCCCCCC(=O)NCCCCCC(=O)NCCCC[C@H](NC(=O)C[C@H](Cc1ccccc1)NC(=O)[C@@H]1CCC=CCC[C@H](NC(=O)[C@@H]2CCCN2C(=O)[C@@H](NC(=O)[C@H](Cc2c[nH]cn2)NC(=O)[C@@H](NC(=O)[C@H](CCC(=O)O)NC(=O)CC(C)C)[C@@H](C)O)C(c2ccccc2)c2ccccc2)C(=O)N[C@@H]([C@@H](C)CC)C(=O)N1)C(=O)N[C@H](CCCCN)C(N)=O [Compd 6] (Isovaleryl-ETH[Dip]P[Hag]I[Hag][β3hF]K([Ahx-Palmitoyl])[dK]-NH2; staple 6-8)" value_reported="1 to 10 nM"
compound="CCCCCCCCCCCCCCCC(=O)NCCCCCC(=O)NCCCC[C@@H]1NC(=O)[C@H](C)NC(=O)[C@@H]2CCCN2C(=O)[C@H](C(c2ccccc2)c2ccccc2)NC(=O)[C@H](Cc2c[nH]cn2)NC(=O)[C@H]([C@@H](C)O)NC(=O)[C@@H](NC(=O)CC(C)C)CCC=CCC[C@@H](C(=O)N[C@H](CC(N)=O)Cc2ccccc2)NC1=O [Compd 25] (Isovaleryl-[Hag]TH[Dip]PAK([Ahx-Palmitoyl])[Hag][β3hF]-NH2; staple 1-8)" value_reported="100 to 500 nM"
